Target: human VEGFR-2 (KDR) expressed on porcine aortic endothelial cells (PAE/KDR) (human, UniProt P35968 20-1356)
Sequence (P35968 20-1356): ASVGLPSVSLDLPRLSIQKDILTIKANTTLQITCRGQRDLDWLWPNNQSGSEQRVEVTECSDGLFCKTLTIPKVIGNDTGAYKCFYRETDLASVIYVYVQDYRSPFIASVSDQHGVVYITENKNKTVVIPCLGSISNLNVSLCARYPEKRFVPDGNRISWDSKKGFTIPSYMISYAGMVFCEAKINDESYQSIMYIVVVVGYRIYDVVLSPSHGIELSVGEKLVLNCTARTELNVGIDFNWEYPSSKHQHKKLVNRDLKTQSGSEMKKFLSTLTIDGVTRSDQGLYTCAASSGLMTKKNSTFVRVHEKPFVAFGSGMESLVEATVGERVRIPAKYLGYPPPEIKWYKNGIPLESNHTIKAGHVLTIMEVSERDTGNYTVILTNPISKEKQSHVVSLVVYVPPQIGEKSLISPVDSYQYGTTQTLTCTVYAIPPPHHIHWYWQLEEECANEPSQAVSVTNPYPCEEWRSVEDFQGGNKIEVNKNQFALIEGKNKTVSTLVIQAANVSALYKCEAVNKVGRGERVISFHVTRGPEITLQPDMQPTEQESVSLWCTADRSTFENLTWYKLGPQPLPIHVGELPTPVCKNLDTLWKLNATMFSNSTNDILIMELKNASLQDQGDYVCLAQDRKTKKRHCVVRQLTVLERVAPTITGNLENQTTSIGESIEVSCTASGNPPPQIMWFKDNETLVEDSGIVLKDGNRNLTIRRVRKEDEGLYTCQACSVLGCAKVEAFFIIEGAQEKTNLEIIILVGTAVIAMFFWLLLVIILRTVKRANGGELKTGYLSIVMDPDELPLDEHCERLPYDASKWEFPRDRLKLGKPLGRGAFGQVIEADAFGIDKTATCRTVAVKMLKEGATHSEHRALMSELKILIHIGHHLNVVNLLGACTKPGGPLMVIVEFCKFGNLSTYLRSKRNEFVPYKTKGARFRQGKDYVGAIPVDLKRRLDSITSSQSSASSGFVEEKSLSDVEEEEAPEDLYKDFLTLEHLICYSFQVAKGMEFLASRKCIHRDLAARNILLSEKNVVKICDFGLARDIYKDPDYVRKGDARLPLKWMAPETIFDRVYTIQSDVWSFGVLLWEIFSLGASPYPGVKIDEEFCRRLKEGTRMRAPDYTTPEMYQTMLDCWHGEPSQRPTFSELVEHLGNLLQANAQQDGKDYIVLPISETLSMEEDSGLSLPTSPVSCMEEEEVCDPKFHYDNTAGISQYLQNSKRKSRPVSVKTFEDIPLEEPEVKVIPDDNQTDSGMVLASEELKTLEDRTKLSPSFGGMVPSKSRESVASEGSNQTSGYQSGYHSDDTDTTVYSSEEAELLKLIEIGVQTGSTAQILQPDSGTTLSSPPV
Test: cell-based or functional assay
Measured Endpoint: phosphorylated VEGFR-2 (Western blot, PAE/KDR cells)

Some binders with known phosphorylated VEGFR-2 (Western blot, PAE/KDR cells) results, for comparison:
| Binder | Result Value |
| --- | --- |
| VEGFR-2 specific mutant VEGFDEE (D63AE64AE67A mutant of VEGF121) (ligand, also called VEGF121-DEE Mutant; not shown: His-tag) MAPMAEGGGQNHHEVVKFMDVYQRSYCHPIETLVDIFQEYPDEIEYIFKPSCVPLMRCGGCCNAAGLACVPTEESNITMQIMRIKPHQGQHIGEMSFLQHNKCECRPKKDRARQEKCDKPRRGS | > 10 nM |
| VEGF121 protein (Examples 3 and 5: His-tag containing, expressed from pRSF-Duet1) (ligand, No tag removal is described; also called wild type VEGF121; wild-type VEGF121; not shown: His-tag) APMAEGGGQNHHEVVKFMDVYQRSYCHPIETLVDIFQEYPDEIEYIFKPSCVPLMRCGGCCNDEGLECVPTEESNITMQIMRIKPHQGQHIGEMSFLQHNKCECRPKKDRARQEKCDKPRR | > 10 nM |
| DOTA-VEGF121 (Example 5) (ligand, DOTA conjugated; 2.1±0.1 DOTA molecules per monomeric VEGF121; sites not stated, DOTA conjugate of m3; not shown: His-tag) APMAEGGGQNHHEVVKFMDVYQRSYCHPIETLVDIFQEYPDEIEYIFKPSCVPLMRCGGCCNDEGLECVPTEESNITMQIMRIKPHQGQHIGEMSFLQHNKCECRPKKDRARQEKCDKPRR | > 10 nM |

Ask: Which phosphorylated VEGFR-2 (Western blot, PAE/KDR cells) is listed for DOTA-VEGFDEE (ligand, DOTA conjugated; 2.2±0.1 DOTA molecules per monomeric VEGFDEE; sites not stated, DOTA conjugate of m4; not shown: His-tag) MAPMAEGGGQNHHEVVKFMDVYQRSYCHPIETLVDIFQEYPDEIEYIFKPSCVPLMRCGGCCNAAGLACVPTEESNITMQIMRIKPHQGQHIGEMSFLQHNKCECRPKKDRARQEKCDKPRRGS ?
Reply: > 10 nM

These data points were gathered from patent US20080031815A1.
